As a worked illustration, we turn to AC50 data collected for Adenosine receptor A1 (Homo sapiens, UniProt P30542).

Example entries begin here.
compound: Cc1cccc(C)c1OCC(C)N (stereo unspecified)
AC50: > 30 µM
--
compound: COc1ccc2c(c1)c(CC(=O)OCC(=O)O)c(C)n2C(=O)c1ccc(Cl)cc1
AC50: > 30 µM
--
compound: CN[C@@H]1[C@H](O)[C@H](NC)[C@H]2O[C@@]3(O)C(=O)C[C@@H](C)O[C@H]3O[C@@H]2[C@H]1O
AC50: > 10 µM

For every item in the list below, what is its measured AC50?
1. CC(C)[N+](C)(CCC(C(N)=O)(c1ccccc1)c1ccccc1)C(C)C [ISOPROPAMIDE]
2. C[C@H]1O[C@H](O[C@H]2[C@H](O)[C@@H](O)[C@@H](O[C@H]3[C@H](O)[C@@H](O)C(O)O[C@@H]3CO)O[C@@H]2CO)[C@H](O)[C@@H](O)[C@@H]1N[C@H]1C=C(CO)[C@@H](O)[C@H](O)[C@H]1O (stereo partly specified)
3. C[C@H]1C[C@@H]2[C@H]([C@@H](O)C[C@@]3(C)[C@H]2CC[C@]3(O)C(=O)COC(=O)CCC(=O)O)[C@@]2(C)C=CC(=O)C=C12 [METHYLPREDNISOLONE HEMISUCCINATE]

1: > 10 µM; 2: > 30 µM; 3: > 30 µM

----------
- subjectOfTest: cGMP-inhibited 3',5'-cyclic phosphodiesterase 3A (Homo sapiens, UniProt Q14432)
- Sequence (Q14432 whole entry): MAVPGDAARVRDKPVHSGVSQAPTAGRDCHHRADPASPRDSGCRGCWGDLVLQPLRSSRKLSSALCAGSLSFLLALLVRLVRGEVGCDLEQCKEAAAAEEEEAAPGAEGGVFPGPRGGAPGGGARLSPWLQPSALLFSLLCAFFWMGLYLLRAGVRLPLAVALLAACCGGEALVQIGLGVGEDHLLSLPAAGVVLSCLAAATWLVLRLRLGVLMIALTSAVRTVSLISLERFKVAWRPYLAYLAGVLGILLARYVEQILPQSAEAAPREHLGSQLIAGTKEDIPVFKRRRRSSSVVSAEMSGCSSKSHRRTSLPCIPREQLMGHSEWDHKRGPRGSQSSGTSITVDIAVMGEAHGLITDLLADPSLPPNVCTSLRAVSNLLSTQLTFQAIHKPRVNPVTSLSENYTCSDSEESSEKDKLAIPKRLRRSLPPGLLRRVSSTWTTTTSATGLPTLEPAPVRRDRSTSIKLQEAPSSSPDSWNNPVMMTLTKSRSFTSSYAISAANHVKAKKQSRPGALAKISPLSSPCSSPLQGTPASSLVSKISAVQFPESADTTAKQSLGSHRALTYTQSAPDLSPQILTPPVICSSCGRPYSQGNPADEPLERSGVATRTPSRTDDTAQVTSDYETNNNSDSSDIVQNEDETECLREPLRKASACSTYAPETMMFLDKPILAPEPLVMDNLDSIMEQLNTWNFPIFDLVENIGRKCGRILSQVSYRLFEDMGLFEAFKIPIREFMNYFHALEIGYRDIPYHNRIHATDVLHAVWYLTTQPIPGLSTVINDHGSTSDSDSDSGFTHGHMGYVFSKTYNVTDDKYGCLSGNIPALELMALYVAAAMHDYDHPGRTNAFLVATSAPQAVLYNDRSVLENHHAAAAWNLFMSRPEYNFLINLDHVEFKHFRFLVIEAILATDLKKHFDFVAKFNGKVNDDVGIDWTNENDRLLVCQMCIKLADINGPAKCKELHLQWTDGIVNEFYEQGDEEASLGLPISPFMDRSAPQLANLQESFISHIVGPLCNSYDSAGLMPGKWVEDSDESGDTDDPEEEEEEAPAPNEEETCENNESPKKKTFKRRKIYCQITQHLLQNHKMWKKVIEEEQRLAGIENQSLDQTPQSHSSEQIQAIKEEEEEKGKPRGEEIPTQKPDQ
- Assay type: functional
recordedEndpoint: AC50

Study these solved cases before continuing.
compound: Oc1c(I)cc(I)c2cccnc12
subjectOfTest: cGMP-inhibited 3',5'-cyclic phosphodiesterase 3A (Homo sapiens, UniProt Q14432)
AC50: 3.36 µM

compound: O=C(Nc1ccccc1)OCC(CN1CCCCC1)OC(=O)Nc1ccccc1 (stereo not drawn)
subjectOfTest: cGMP-inhibited 3',5'-cyclic phosphodiesterase 3A (Homo sapiens, UniProt Q14432)
AC50: > 30 µM

Hi team, please reply with AC50 for each item in this list.
1. CC(N/C(=N\C#N)Nc1ccncc1)C(C)(C)C (stereo not drawn) [PINACIDIL ANHYDROUS]
2. CN1C(=O)N(C)C2C1N(C)C(=O)N2C (stereo not drawn)
3. C[C@H]1O[C@H](O[C@H]2[C@H](O)[C@@H](O)[C@@H](O[C@H]3[C@H](O)[C@@H](O)C(O)O[C@@H]3CO)O[C@@H]2CO)[C@H](O)[C@@H](O)[C@@H]1N[C@H]1C=C(CO)[C@@H](O)[C@H](O)[C@H]1O (stereo partly drawn)
4. CN(C)c1ccc(C(=C2C=CC(=[N+](C)C)C=C2)c2ccc(N(C)C)cc2)cc1
5. NS(=O)(=O)c1cc2c(cc1Cl)NC(CC1CCCC1)NS2(=O)=O (stereo not drawn) [CYCLOPENTHIAZIDE]

1: > 30 µM; 2: > 30 µM; 3: 17.6 µM; 4: > 30 µM; 5: > 30 µM

Give recorded AC50 with cGMP-inhibited 3',5'-cyclic phosphodiesterase 3A (Homo sapiens, UniProt Q14432) for the following compound: O=C1CC[C@@]2(O)[C@H]3Cc4ccc(O)c5c4[C@@]2(CCN3CC2CC2)[C@H]1O5 [NALTREXONE] > 30 µM
